Hello, the source for this data is patent US12568967B2, in case you need it.

# maps each entry to its % visual injury (Obs)
tested on: Matricaria chamomilla (wild chamomile, MATCH); experiment: Greenhouse postemergence trial MATCH; type: in vivo; conditions: MATCH; alone 280 g/ha;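 also: greenhouse plants sprayed at second to third true leaf stage, injury rated by eye 20-22 d later versus solvent-blank controls on 0–100 scale, 0 no injury, 100 complete kill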
experimental_endpoint: % visual injury (Obs)

compound	observed_value
O=C(O)COc1nc(Cl)c(Cl)cc1Cl	5%
Cc1cc(Cl)ccc1OC(C)C(=O)O (centres unmarked)	18%
CC(Oc1ccc(Cl)cc1Cl)C(=O)[O-].[K+] (centres unmarked)	20%
O=C(O)CCCOc1ccc(Cl)cc1Cl	5%
CCCCC(CC)COC(=O)COc1ccc(Cl)cc1C (centres unmarked)	20%

====

test system: Triticum aestivum (spring wheat, TRZAS); assay type: in vivo; conditions: TRZAS; alone 280 g/ha

compound	% visual injury (Obs)
O=C(O)COc1nc(Cl)c(Cl)cc1Cl	0%
Cc1cc(Cl)ccc1OC(C)C(=O)O (centres unmarked)	0%
O=C(O)CCCOc1ccc(Cl)cc1Cl	0%
CNC.O=C(O)COc1ccc(Cl)cc1Cl	5%
CCCCC(CC)COC(=O)COc1ccc(Cl)cc1C (centres unmarked)	0%
